measurement.protocol: Cytotoxicity against Vero E6 cells by MTT assay
Format: cell-based
condition.set: chlorocebus sabaeus
This section presents compounds with their documented CC50 values.
# value in µM; strip the unit string

Example results:
                           smiles_structure  observed_property  unit_tag  result_number
0  CC(=O)Oc1cc2c(cc1C(C)C)C=C[C@H]1C(C)(C)[C@@H](OC(C)=O)CC[C@]21C               CC50        µM            303
1  CC(C)c1cc2c(cc1O)[C@@]1(C)CCCC(C)(C)[C@@H]1CC2               CC50        µM           80.4
2       C=CCc1ccc(O)c(-c2ccc(O)c(CC=C)c2)c1               CC50        µM           88.9
3  CC1=C[C@@H]2[C@@H](CC1)[C@](C)(O)CC[C@H]2C(C)C               CC50        µM           76.8

Kindly consider the entry below.
query: Value lookup for CC50; key = `C=CCc1ccc(O)c(-c2cc(CC=C)ccc2O)c1`
result: 68.3
